- ASSAY TARGET: T1, human GPRC5D (human, UniProt Q9NZD1 1-345)
- T1 construct: whole, on cells; also called hGPRC5D; G-protein coupled receptor family C group 5 member D
- T1 sequence (Q9NZD1 whole entry): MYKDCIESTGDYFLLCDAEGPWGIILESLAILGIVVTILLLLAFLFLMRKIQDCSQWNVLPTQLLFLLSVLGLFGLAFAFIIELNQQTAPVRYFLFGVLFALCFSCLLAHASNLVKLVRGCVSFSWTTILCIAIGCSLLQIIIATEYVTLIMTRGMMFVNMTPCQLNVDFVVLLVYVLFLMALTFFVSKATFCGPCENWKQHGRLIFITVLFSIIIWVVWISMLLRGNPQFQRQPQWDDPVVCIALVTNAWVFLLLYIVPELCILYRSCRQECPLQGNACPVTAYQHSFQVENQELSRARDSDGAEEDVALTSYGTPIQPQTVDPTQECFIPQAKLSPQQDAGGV
- PROCEDURE TEXT: FACS, CHOS-hGPRC5D cells
Provide the recorded Top for the entries that follow.

Here is how some binders turned out for Top.
[[record]]
binder = "ch116G1G4 (antibody, V domains shown) VH: EVQLQQSGPELVKPGASVKMSCKASGYTFTYYIMHWVKQEPGQGLQWIGYINPYNDGAYYSARFKGKATLTSDKSSSTAYMDLTSLTSEDSAVYYCARGGVRRYFDVWGAGTTVTVSS VL: DIQMTQSPSSLSASLGERVILTCRASQDIGSNLIWLQQKPDGTIKRLIYATFNLDSGVSKRFSGSRSGSDYSLTISSLDSEDFVDYYCLQYASSPYTFGGGTKLEIK"
reported_metric = "Top"
result = 2240

[[record]]
binder = "ch26E2H6 (antibody, V domains shown) VH: EVQLVESGGDLVKPGGSLKLSCAASGFTFSSYGMSWVRQTPDKRLEWVATISSGGSYTYYPDSVKGRFTISRDNAKNTLYLQMSSLKSEDTAMYYCARHATDYWGQGTTLTVSS VL: QIVLTQSPAIMSASPGEKVTMTCSASSSVSYMHWYQQKSGTSPKRWIYDTSKLASGVPARFSGSGSGTSYSLTISSMEAEDAATYYCQQWSSNPLTFGAGTKLELK"
reported_metric = "Top"
result = 2910


### Prompt # query: Top of entry ch108C4C12 (antibody, V domains shown) VH: EVQLQQSGPELVKPGASVKMSCKASGYTFTSYVIHWVKQKTGQGLEWIGYFNPYNDGTKYNEEFKGKATLTSDKSSNTAYMELNSLTSDDSAVYFCARGGVRRYFDVWGAGTTVTVSS VL: DIQMTQSPSSLSASLGERVSLTCRASQDIGSNLNWLQQEPDGTIKRLIYATFGLDSGVPKRFSGSRSGSDYSLTISSLESEDFVDYYCQQYASFPYTFGGGTKLEIK
### Response 2040
